molecular target: hTREM2 (Homo sapiens); assay: TREM2 activity by cellular Syk phosphorylation (AlphaScreen/AlphaLISA) in TREM2/DAP12-HEK cells, used for Examples 1-305; format: cell-based; parameters: expressed in transfected cells; conditions: HEK293 Cells
Sequence (Q9NZC2 19-230): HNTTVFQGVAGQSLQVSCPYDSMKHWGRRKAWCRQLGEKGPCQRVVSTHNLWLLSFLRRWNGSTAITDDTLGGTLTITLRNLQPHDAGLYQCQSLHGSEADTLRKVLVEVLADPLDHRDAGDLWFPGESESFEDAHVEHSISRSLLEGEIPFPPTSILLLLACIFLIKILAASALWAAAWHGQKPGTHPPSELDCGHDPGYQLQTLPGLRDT
Sequence (O43914 22-113 partner): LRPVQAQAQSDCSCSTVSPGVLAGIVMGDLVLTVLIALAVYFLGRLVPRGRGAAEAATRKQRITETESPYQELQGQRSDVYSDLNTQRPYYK

>  <MOLECULE>
Cc1ccc(-c2nc([C@H]3CCO[C@@H](c4cnn(C)c4)C3)nc3nc(C)c(C)cc23)c(F)c1 (single isomer, unassigned)

>  <hTREM2 Emax>
+++ (Emax>150 and ≤250)

$$$$
>  <MOLECULE>
Cc1cnc2c(-c3ccc(F)cc3F)nc(N3CCO[C@@H](c4cnn(C)c4)C3)nc2n1

>  <hTREM2 Emax>
+++ (Emax>150 and ≤250)

$$$$
>  <MOLECULE>
Cn1cc([C@H]2CN(c3nc(-c4ccc(Cl)cc4F)c4cccnc4n3)CCO2)cn1

>  <hTREM2 Emax>
++++ (Emax>250)

$$$$
>  <MOLECULE>
Cc1nc2nc(N3CCO[C@@H](c4cnn(C)c4)C3)nc(-c3ccc(C(F)(F)F)cc3F)c2nc1C

>  <hTREM2 Emax>
++++ (Emax>250)

$$$$
>  <MOLECULE>
Cc1nc2nc(N3CCO[C@@H](c4cnn(C5CC5)c4)C3)nc(C3CCC(F)(F)CC3)c2nc1C

>  <hTREM2 Emax>
+++ (Emax>150 and ≤250)

$$$$
>  <MOLECULE>
Cc1ccc(-c2nc([C@@H]3CCO[C@H](c4cnn(C)c4)C3)cc3nc(C)c(C)nc23)c(F)c1

>  <hTREM2 Emax>
+++ (Emax>150 and ≤250)

$$$$

====

biological target: hTREM2 (Homo sapiens); experiment: TREM2 activity by cellular Syk phosphorylation (AlphaScreen/AlphaLISA) in TREM2/DAP12-HEK cells, used for Examples 1-305; format: cell-based; set-up: expressed in transfected cells; details: HEK293 Cells
Overview of reported EC50 across a group of compounds:
ASSAY_ENDPOINT: EC50

>  <COMPOUND>
COc1cc([C@H]2CN(c3cc4nc(C)cnc4c(-c4ccc(Cl)cc4F)n3)CCO2)ccn1 [Example 78]

>  <ENDPOINT_RESULT>
0.05 to 0.5 µM

$$$$
>  <COMPOUND>
Cc1nc2nc([C@H]3CCO[C@H](c4cnn(C)c4)C3)cc(-c3ccc(F)cc3F)c2nc1C [Example 265]

>  <ENDPOINT_RESULT>
0.5 to 3 µM

$$$$
>  <COMPOUND>
Cc1nc2nc([C@H]3CCO[C@H](c4cnn(C)c4)C3)nc(-c3ccc(F)cc3F)c2nc1C [Example 263]

>  <ENDPOINT_RESULT>
0.5 to 3 µM

$$$$
>  <COMPOUND>
Cc1nc2nc(N3CCO[C@@H](c4cnn(C)c4)C3)nc(-c3ccc(Cl)cc3F)c2cc1Cl [Example 116]

>  <ENDPOINT_RESULT>
≤ 0.05 µM

$$$$
>  <COMPOUND>
Cc1cnc2c(-c3ccc(F)cc3F)nc(N3CCO[C@@H](c4cnn(C)c4)C3)nc2n1 [Example 6]

>  <ENDPOINT_RESULT>
0.05 to 0.5 µM

$$$$
>  <COMPOUND>
Cc1nc2nc(N3CCO[C@@H](c4cnn(C)c4)C3)nc(C3CCC(Cl)CC3)c2nc1C (mixture of isomers) [Example 165]

>  <ENDPOINT_RESULT>
≤ 0.05 µM

$$$$
>  <COMPOUND>
Cc1nc2nc(N3CCO[C@@H](c4cnn(C)c4)C3)nc(-c3ccc(Cl)cc3F)c2nc1C [Example 21]

>  <ENDPOINT_RESULT>
≤ 0.05 µM

$$$$
>  <COMPOUND>
Cc1nc2nc([C@@H]3CCO[C@H](c4cnn(C5CC5)c4)C3)nc(-c3ccc(F)cc3F)c2nc1C [Example 241]

>  <ENDPOINT_RESULT>
≤ 0.05 µM

$$$$
>  <COMPOUND>
Cc1ccc(-c2nc([C@H]3CCO[C@H](c4cnn(C)c4)C3)nc3nc(C)c(C)nc23)c(F)c1 [Example 264]

>  <ENDPOINT_RESULT>
0.5 to 3 µM

$$$$
>  <COMPOUND>
Cc1nc2nc([C@H]3C[C@@H](C)O[C@@H](c4cnn(C)c4)C3)nc(-c3ccc(Cl)cc3F)c2nc1C (single isomer, unassigned) [Example 216]

>  <ENDPOINT_RESULT>
≤ 0.05 µM

$$$$
>  <COMPOUND>
Cc1cc2c(OCC3CC(F)(F)C3)nc(N3CCO[C@@H](c4cnn(C)c4)C3)nc2nc1C [Example 108]

>  <ENDPOINT_RESULT>
0.05 to 0.5 µM

$$$$
>  <COMPOUND>
Cc1cc([C@H]2CN(c3nc(-c4ccc(Cl)cc4F)c4ccc(C)nc4n3)CCO2)cnn1 (single isomer, unassigned) [Example 86]

>  <ENDPOINT_RESULT>
≤ 0.05 µM

$$$$
>  <COMPOUND>
Cc1ccc(-c2nc([C@@H]3CCO[C@H](c4cnn(C)c4)C3)cc3nc(C)c(C)nc23)c(F)c1 [Example 258]

>  <ENDPOINT_RESULT>
0.5 to 3 µM

$$$$
>  <COMPOUND>
Cc1nc2nc(N3CCC(F)(F)[C@H](c4cnn(C)c4)C3)nc(-c3ccc(Cl)cc3F)c2nc1C (single isomer, unassigned) [Example 124]

>  <ENDPOINT_RESULT>
≤ 0.05 µM

$$$$

====

biological target: hTREM2 (Homo sapiens); assay: TREM2 activity by cellular Syk phosphorylation (AlphaScreen/AlphaLISA) in TREM2/DAP12-HEK cells, used for Examples 1-305; assay type: cell-based; parameters: expressed in transfected cells; details: HEK293 Cells
ASSAY_ENDPOINT: hTREM2 Emax

>  <MOLECULE>
Cc1cc([C@H]2CN(c3nc4nc(C)c(C)cc4c([C@H]4C[C@H](C(F)(F)F)C4)n3)CCO2)ccn1 [Example 115]

>  <ASSAY_ENDPOINT>
hTREM2 Emax

>  <ENDPOINT_RESULT>
++ (Emax>100 and ≤150)

$$$$
>  <MOLECULE>
Cc1nc2cc([C@@H]3CCO[C@@H](c4cnn(C)c4)C3)nc(-c3ccc(Cl)cc3F)c2nc1C [Example 245]

>  <ASSAY_ENDPOINT>
hTREM2 Emax

>  <ENDPOINT_RESULT>
++++ (Emax>250)

$$$$
>  <MOLECULE>
Cc1nc2nc(N3CCO[C@@H](c4cnn(C5CC5)c4)C3)nc(-c3ccc(F)cc3F)c2nc1C [Example 32]

>  <ASSAY_ENDPOINT>
hTREM2 Emax

>  <ENDPOINT_RESULT>
+++ (Emax>150 and ≤250)

$$$$
>  <MOLECULE>
Cc1cc2c(-c3ccc(Cl)cc3F)nc(C3CCO[C@H](c4cnn(C)c4)C3)nc2nc1C (stereo in doubt) [Example 277]

>  <ASSAY_ENDPOINT>
hTREM2 Emax

>  <ENDPOINT_RESULT>
+++ (Emax>150 and ≤250)

$$$$
>  <MOLECULE>
Cc1cc([C@H]2C[C@H](c3nc(-c4ccc(F)cc4F)c4nc(C)c(C)nc4n3)CCO2)ccn1 (single isomer, unassigned) [Example 213]

>  <ASSAY_ENDPOINT>
hTREM2 Emax

>  <ENDPOINT_RESULT>
+++ (Emax>150 and ≤250)

$$$$
>  <MOLECULE>
Cc1cc2c(nc(N3CCO[C@@H](c4cnn(C)c4)C3)nc2[C@H]2C[C@H](C(F)(F)F)C2)nc1C [Example 112]

>  <ASSAY_ENDPOINT>
hTREM2 Emax

>  <ENDPOINT_RESULT>
+++ (Emax>150 and ≤250)

$$$$
>  <MOLECULE>
Cc1ccc2c(-c3ccc(Cl)cc3F)nc([C@H]3CCO[C@@H](c4cnn(C5CC5)c4)C3)nc2n1 (single isomer, unassigned) [Example 197]

>  <ASSAY_ENDPOINT>
hTREM2 Emax

>  <ENDPOINT_RESULT>
++++ (Emax>250)

$$$$
>  <MOLECULE>
Cc1ccc2c(-c3ccc(Cl)cc3F)nc(N3CCO[C@@H](c4cnc(C)nc4)C3)nc2n1 (single isomer, unassigned) [Example 90]

>  <ASSAY_ENDPOINT>
hTREM2 Emax

>  <ENDPOINT_RESULT>
+++ (Emax>150 and ≤250)

$$$$
>  <MOLECULE>
Cc1ccc2c(-c3ccc(Cl)cc3F)nc(N3CCO[C@@H](c4cnn(C)c4)C3)nc2n1 [Example 84]

>  <ASSAY_ENDPOINT>
hTREM2 Emax

>  <ENDPOINT_RESULT>
+++ (Emax>150 and ≤250)

$$$$
>  <MOLECULE>
Cc1cc([C@H]2CN(c3nc4nc(C)cnc4c([C@H]4C[C@H](C(F)(F)F)C4)n3)CCO2)cnn1 [Example 279]

>  <ASSAY_ENDPOINT>
hTREM2 Emax

>  <ENDPOINT_RESULT>
+++ (Emax>150 and ≤250)

$$$$
>  <MOLECULE>
Cc1ccc2c(-c3ccc(Cl)cc3F)nc([C@@H]3CCO[C@H](c4cnn(C5CC5)c4)C3)nc2n1 [Example 260]

>  <ASSAY_ENDPOINT>
hTREM2 Emax

>  <ENDPOINT_RESULT>
+++ (Emax>150 and ≤250)

$$$$
>  <MOLECULE>
Cc1nc2nc(N3CCO[C@@H](c4cnn(C)c4)C3)nc(N3CCC(F)(F)C3)c2nc1C [Example 71]

>  <ASSAY_ENDPOINT>
hTREM2 Emax

>  <ENDPOINT_RESULT>
++ (Emax>100 and ≤150)

$$$$
>  <MOLECULE>
Cc1cc([C@H]2CN(c3nc4nc(C)c(C)nc4c([C@H]4C[C@@H](C(F)F)C4)n3)CCO2)ccn1 [Example 53]

>  <ASSAY_ENDPOINT>
hTREM2 Emax

>  <ENDPOINT_RESULT>
++ (Emax>100 and ≤150)

$$$$
